- Test system: Plasmorpara viticola
- Assay: Example I grape downy mildew
- Type: in vivo
- Stated Conditions: read-out: disease control rating, Ex. I
pest or weed control at 100 ppm listing for selected molecules.
Experimental Readout: pest or weed control at 100 ppm (%)

• C=C(c1ccc(SC)cc1)C(O)(Cn1cncn1)c1ccc(F)cc1F (stereo not drawn) = 0
• C=C(c1ccc(F)cc1)C(O)(Cn1cncn1)c1ccccc1F (stereo not drawn) = 0
• C=C(c1ccccc1)C(O)(Cn1cncn1)c1ccc(F)c(Cl)c1 (stereo not drawn) = 0

* * *

- Test system: Candida albicans ATCC 11651
- Assay: In vivo systemic Candida infection in mice, primary assay
- Design: species or system Candida albicans; CF-1 female mice
- Stated Conditions: Candida albicans, ATCC11651, 336 h, 150 mg/kg per day, day 14; read-out: % Survival
responders at 150 mg/kg listing for selected molecules.
Experimental Readout: responders at 150 mg/kg (%)

• C=C(c1ccc(F)cc1)C(O)(Cn1cncn1)c1ccc(Cl)cc1 (centres unmarked) = 100
• C=C(c1ccccc1)C(O)(Cn1cncn1)c1ccc(F)cc1 (centres unmarked) = 90
• C=C(c1ccc(Cl)cc1)C(O)(Cn1cncn1)c1cccc(C(F)(F)F)c1 (centres unmarked) = 10
• C=C(c1cccc(F)c1)C(O)(Cn1cncn1)c1ccc(F)cc1 (centres unmarked) = 90
• OC(Cn1cncn1)(c1ccc(F)cc1)C1(c2ccc(F)cc2)CO1 (single isomer, unassigned) = 100

// data source = patent US4965280A
